molecular target: SIK1 (Homo sapiens)
Sequence (P57059 whole entry): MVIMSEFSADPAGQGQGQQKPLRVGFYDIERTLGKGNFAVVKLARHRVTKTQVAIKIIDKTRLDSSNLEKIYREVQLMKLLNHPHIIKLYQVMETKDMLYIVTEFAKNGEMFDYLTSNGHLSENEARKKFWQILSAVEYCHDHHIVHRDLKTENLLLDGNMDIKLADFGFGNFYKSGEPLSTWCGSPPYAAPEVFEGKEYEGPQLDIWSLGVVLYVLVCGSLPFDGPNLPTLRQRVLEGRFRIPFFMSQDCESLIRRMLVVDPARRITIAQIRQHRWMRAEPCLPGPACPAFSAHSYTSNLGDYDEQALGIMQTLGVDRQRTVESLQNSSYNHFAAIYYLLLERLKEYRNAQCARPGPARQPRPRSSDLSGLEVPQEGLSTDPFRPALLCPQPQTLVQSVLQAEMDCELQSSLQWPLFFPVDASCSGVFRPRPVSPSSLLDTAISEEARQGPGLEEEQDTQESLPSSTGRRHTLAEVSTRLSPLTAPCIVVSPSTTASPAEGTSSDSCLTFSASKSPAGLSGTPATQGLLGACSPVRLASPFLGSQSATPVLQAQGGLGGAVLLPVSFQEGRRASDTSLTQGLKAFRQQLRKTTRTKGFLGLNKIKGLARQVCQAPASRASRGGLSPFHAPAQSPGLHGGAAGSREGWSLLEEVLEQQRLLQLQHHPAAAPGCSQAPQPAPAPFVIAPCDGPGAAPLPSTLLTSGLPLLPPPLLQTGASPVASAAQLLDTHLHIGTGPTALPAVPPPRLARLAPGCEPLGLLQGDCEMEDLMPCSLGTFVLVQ
pIC50: −log10 of the molar value.
# reported pIC50; entries follow
quantityMeasured: pIC50

compound | quantityMeasured | dataValue
COc1cc(-c2cnc3cc(OC4C[C@H]5CC[C@@H](C4)N5CCC#N)ccn23)cc(OC(F)F)c1C(=O)NC1CC1 (stereo partly shown) | pIC50 | 6.30 to 7.00
COc1cc(-c2cnc3cc(OCCCN4CCn5cccc5C4)ccn23)cc(OC(F)F)c1C(=O)NC1CC1 | pIC50 | 7.00 to 8.00
COc1cc(-c2cnc3cc(OC[C@H]4CCNC4)ccn23)cc(OC(F)F)c1C(=O)NC1CC1 | pIC50 | 7.00 to 8.00
COc1cc(-c2cnc3cc(OC[C@@H]4CCNC4)ccn23)cc(OC(F)F)c1C(=O)NC1CC1 | pIC50 | 7.00 to 8.00
COc1cc(-c2cnc3cc(OCC4CCCN4C(C)C)ccn23)cc(OC(F)F)c1C(=O)NC1CC1 (stereo not shown) | pIC50 | 6.30 to 7.00
COc1cc(-c2cnc3cc(OCC4CCOCC4)ccn23)cc(OC(F)F)c1C(=O)NC1CC1 | pIC50 | 8.00 to 11.00
COc1cc(-c2cnc3cc(OC4CCOC4)ccn23)cc(OC(F)F)c1C(=O)NC1CC1 (stereo not shown) | pIC50 | 7.00 to 8.00
COc1cc(-c2cnc3cc(OCC(C)N)ccn23)cc(OC(F)F)c1C(=O)NC1CC1 (stereo not shown) | pIC50 | 7.00 to 8.00
COc1cc(-c2cnc3cc(OCCN(C)CC(F)F)ccn23)cc(OC(F)F)c1C(=O)NC1CC1 | pIC50 | 7.00 to 8.00
COc1cc(-c2cnc3cc(OCCN4CCCC4)ccn23)cc2c1C(=O)N(CC(F)(F)F)CC2 | pIC50 | < 6.30
